System: Toxoplasma gondii grown in human fibroblasts
Experiment: Incorporation of radiolabeled uracil (parasite survival)
Assay type: cell-based
Details: Toxoplasma gondii, Fibroblast; 10 μM; [5,6-3H]uracil incorporation; read-out: percent survival of Toxoplasma gondii grown in human fibroblasts
Procedure: Incorporation of Radiolabeled Uracil. […] After filtration, the filters were washed with 10 mL methanol, left to dry, and then placed in scintillation vials containing 5 mL of Econo-Safe scintillation fluor (Research Products International Corp., Mount Prospect, Ill.), and radioactivity was counted using an LS5801 Beckman scintillation counter.
Please provide measured activity at 10 µM for the entries that follow.
Report as a plain number; the unit % is understood.

Inquiry: Look at this molecule and give its reported activity at 10 µM. OC[C@H]1O[C@@H](n2cnc3c(NCc4ccccc4)ncnc32)[C@H](O)[C@@H]1O [Compound 45, N^6 -Benzyladenosine]
Reply text: 41.8

Inquiry: Can you handle Nc1ccc(CNc2ncnc3c2ncn3[C@@H]2O[C@H](CO)[C@@H](O)[C@H]2O)cc1 [Compound 46, N^6 -(p-Aminobenzyl)adenosine] next?
Reply text: 95.6

Inquiry: Can you handle O=[N+]([O-])c1ccc(CSc2ncnc3c2ncn3[C@@H]2O[C@H](CO)[C@@H](O)[C@H]2O)cc1 [Compound 21] next?
Reply text: 55.5

Inquiry: Can you handle Nc1ccc(S(=O)(=O)Nc2ncccn2)cc1 [Sulfadiazine, reference compound] next?
Reply text: 64.8

Inquiry: Can you handle CCc1nc(N)nc(N)c1-c1ccc(Cl)cc1 [Pyrimethamine, reference compound] next?
Reply text: 12.9

Inquiry: Can you handle O=[N+]([O-])c1ccc(CSc2ncnc3c2ncn3[C@@H]2O[C@H](COP(=O)(O)O)[C@@H](O)[C@H]2O)cc1 [NBMPR-P] next?
Reply text: 53.3

====

Please provide measured Ki for the entries that follow.
Biological target: T. gondii adenosine kinase (Toxoplasma gondii)
Sequence (Q9TVW2 whole entry): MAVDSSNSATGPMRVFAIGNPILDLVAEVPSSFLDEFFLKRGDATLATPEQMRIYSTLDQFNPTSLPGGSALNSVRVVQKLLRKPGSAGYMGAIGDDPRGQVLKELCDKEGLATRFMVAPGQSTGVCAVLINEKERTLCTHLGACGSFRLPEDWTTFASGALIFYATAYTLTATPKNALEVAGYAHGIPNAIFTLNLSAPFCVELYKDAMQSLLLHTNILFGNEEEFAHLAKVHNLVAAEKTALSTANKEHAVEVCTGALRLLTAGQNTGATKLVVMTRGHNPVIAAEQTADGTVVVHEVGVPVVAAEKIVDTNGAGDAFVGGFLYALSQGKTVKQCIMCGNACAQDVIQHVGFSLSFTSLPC
Test: biochemical
Report as a plain number; the unit µM is understood.

Inquiry: Look at this compound and give its reported Ki. `CCSc1ncnc2c1cnn2[C@@H]1O[C@H](CO)[C@@H](O)[C@H]1O`
Reply text: 210

Inquiry: Can you handle `NC(=NO)c1c(Br)n([C@@H]2O[C@H](CO)[C@@H](O)[C@H]2O)c2ncnc(N)c12` next?
Reply text: 210

Inquiry: Can you handle `Nc1ncnc2c1ncn2[C@@H]1O[C@H](C(=O)O)[C@@H](O)[C@H]1O` next?
Reply text: 1100

Inquiry: Can you handle `CC(C)=CCCC(C)=CCNc1ncnc2c1ncn2[C@@H]1O[C@H](CO)[C@@H](O)[C@H]1O` next?
Reply text: 100

====

Molecular target: T. gondii adenosine kinase (Toxoplasma gondii)
Test: biochemical
Conditions: AppKi for inhibition of T. gondii adenosine kinase, 5 μM adenosine; ± range, at least two estimations
pKi: −log10 of the molar value.
The threshold is inclusive: pKi of exactly 3 counts as 1; values below receive 0.

Inquiry: Could you please find out whether `NC(=O)c1cn([C@@H]2O[C@H](CO)[C@@H](O)[C@H]2O)c2ncnc(N)c12` has pKi that meets 3 or exceeds it?
Reply text: 1

Inquiry: Can you handle `NC(=O)c1cn([C@@H]2O[C@H](CO)C[C@H]2O)c2ncnc(N)c12` next?
Reply text: 1

Inquiry: Can you handle N#Cc1cn([C@@H]2O[C@H](CO)[C@@H](O)[C@H]2O)c2ncnc(N)c12 [Compound 54] next?
Reply text: 1

Inquiry: Can you handle `Nc1nc(F)nc2c1ncn2[C@@H]1O[C@H](CO)[C@@H](O)[C@H]1O` next?
Reply text: 0

Inquiry: Can you handle `Nc1ncnc2c1ncn2[C@@H]1O[C@H](COC(=O)c2ccc(S(=O)(=O)F)cc2)[C@@H](O)[C@H]1O` next?
Reply text: 1

====

Assay: Toxicity of compounds, MTT assay
Type: cell-based, human
Settings: human, foreskin fibroblasts; 25 μM; MTT, 48 hours; read-out: percent survival of uninfected human fibroblasts
Value Kind: viability at 48 h, 25 µM (%)
Report as a plain number; the unit % is understood.

Inquiry: Look at this compound and give its reported viability at 48 h, 25 µM. O=[N+]([O-])c1ccc(C[Se]c2ncnc3c2ncn3[C@@H]2O[C@H](CO)[C@@H](O)[C@H]2O)cc1 [Compound 24, 6-(p-Nitrobenzyl)selenopurine riboside]
Reply text: 63.4

Inquiry: Can you handle `O=[N+]([O-])c1ccc(CNc2ncnc3c2ncn3[C@@H]2O[C@H](CO)[C@@H](O)[C@H]2O)cc1` next?
Reply text: 92.3

Inquiry: Can you handle OC[C@H]1O[C@@H](n2cnc3c(NCc4ccccc4)ncnc32)[C@H](O)[C@@H]1O [Compound 45, N^6 -Benzyladenosine] next?
Reply text: 36.5

Inquiry: Can you handle Nc1ccc(CNc2ncnc3c2ncn3[C@@H]2O[C@H](CO)[C@@H](O)[C@H]2O)cc1 [Compound 46, N^6 -(p-Aminobenzyl)adenosine] next?
Reply text: 101

Inquiry: Can you handle O=[N+]([O-])c1ccc(CSc2ncnc3c2ncn3[C@@H]2O[C@H](COP(=O)(O)O)[C@@H](O)[C@H]2O)cc1 [NBMPR-P] next?
Reply text: 93.6

Inquiry: Can you handle Nc1ccc(S(=O)(=O)Nc2ncccn2)cc1 [Sulfadiazine, reference compound] next?
Reply text: 99.8

Inquiry: Can you handle `[N-]=[N+]=Nc1ccc(CNc2ncnc3c2ncn3[C@@H]2O[C@H](CO)[C@@H](O)[C@H]2O)cc1` next?
Reply text: 88.9

Inquiry: Can you handle O=C(Nc1ncnc2c1ncn2[C@@H]1O[C@H](CO)[C@@H](O)[C@H]1O)c1ccccc1 [Compound 44, N^6 -Benzoyladenosine] next?
Reply text: 97.6

Inquiry: Can you handle COc1ccc(C(=O)Nc2ncnc3c2ncn3[C@@H]2O[C@H](CO)[C@@H](O)[C@H]2O)cc1 [Compound 47] next?
Reply text: 99.2

Inquiry: Can you handle CCc1nc(N)nc(N)c1-c1ccc(Cl)cc1 [Pyrimethamine, reference compound] next?
Reply text: 108

====

Assay: Toxicity of compounds, MTT assay
Format: cell-based, human
Details: human, foreskin fibroblasts; 5 μM; MTT, 48 hours; read-out: percent survival of uninfected human fibroblasts
// classify: if (viability at 48 h, 5 µM < 90%) class 1 else class 0

Inquiry: Dear colleague, could you confirm whether viability at 48 h, 5 µM of `[N-]=[N+]=Nc1ccc(CNc2ncnc3c2ncn3[C@@H]2O[C@H](CO)[C@@H](O)[C@H]2O)cc1` falls below 90%? Thanks.
Reply text: class 0

Inquiry: Can you handle Nc1ccc(S(=O)(=O)Nc2ncccn2)cc1 [Sulfadiazine, reference compound] next?
Reply text: class 0

Inquiry: Can you handle COc1ccc(C(=O)Nc2ncnc3c2ncn3[C@@H]2O[C@H](CO)[C@@H](O)[C@H]2O)cc1 [Compound 47] next?
Reply text: class 0

Inquiry: Can you handle OC[C@H]1O[C@@H](n2cnc3c(NCc4ccccc4)ncnc32)[C@H](O)[C@@H]1O [Compound 45, N^6 -Benzyladenosine] next?
Reply text: class 1

Inquiry: Can you handle O=C(Nc1ncnc2c1ncn2[C@@H]1O[C@H](CO)[C@@H](O)[C@H]1O)c1ccccc1 [Compound 44, N^6 -Benzoyladenosine] next?
Reply text: class 0

====

System: Toxoplasma gondii grown in human fibroblasts
Experiment: Incorporation of radiolabeled uracil (parasite survival)
Format: cell-based
Details: Toxoplasma gondii, Fibroblast; 10 μM; [5,6-3H]uracil incorporation; read-out: percent survival of Toxoplasma gondii grown in human fibroblasts
Please provide measured activity at 10 µM for the entries that follow.
Report as a plain number; the unit % is understood.

Inquiry: Look at this molecule and give its reported activity at 10 µM. `[N-]=[N+]=Nc1ccc(CNc2ncnc3c2ncn3[C@@H]2O[C@H](CO)[C@@H](O)[C@H]2O)cc1`
Reply text: 17

Inquiry: Can you handle `O=[N+]([O-])c1ccc(CNc2ncnc3c2ncn3[C@@H]2O[C@H](CO)[C@@H](O)[C@H]2O)cc1` next?
Reply text: 27.6

Inquiry: Can you handle `O=C(Nc1ncnc2c1ncn2[C@@H]1O[C@H](CO)[C@@H](O)[C@H]1O)c1ccccc1` next?
Reply text: 94.6

Inquiry: Can you handle `COc1ccc(C(=O)Nc2ncnc3c2ncn3[C@@H]2O[C@H](CO)[C@@H](O)[C@H]2O)cc1` next?
Reply text: 93.1

====

Assay: Toxicity of compounds, MTT assay
Assay type: cell-based, human
Conditions: human, foreskin fibroblasts; 10 μM; MTT, 48 hours; read-out: percent survival of uninfected human fibroblasts
// classify: if (viability at 48 h, 10 µM < 90%) Satisfied else Not satisfied

Inquiry: Dear colleague, could you confirm whether viability at 48 h, 10 µM of O=C(Nc1ncnc2c1ncn2[C@@H]1O[C@H](CO)[C@@H](O)[C@H]1O)c1ccccc1 [Compound 44, N^6 -Benzoyladenosine] falls below 90%? Thanks.
Reply text: Not satisfied

Inquiry: Can you handle `O=[N+]([O-])c1ccc(CNc2ncnc3c2ncn3[C@@H]2O[C@H](CO)[C@@H](O)[C@H]2O)cc1` next?
Reply text: Not satisfied

Inquiry: Can you handle CCc1nc(N)nc(N)c1-c1ccc(Cl)cc1 [Pyrimethamine, reference compound] next?
Reply text: Not satisfied

Inquiry: Can you handle Nc1ccc(S(=O)(=O)Nc2ncccn2)cc1 [Sulfadiazine, reference compound] next?
Reply text: Not satisfied

Inquiry: Can you handle OC[C@H]1O[C@@H](n2cnc3c(NCc4ccccc4)ncnc32)[C@H](O)[C@@H]1O [Compound 45, N^6 -Benzyladenosine] next?
Reply text: Satisfied
